IC50 listing for selected binders.
molecular target: HLA DQ molecule DQB1*0502 (human); assay: inhibition of radiolabeled peptide binding to purified HLA class II
reported.endpoint: IC50 (µM)

binder="DAYVATLTEALRVIA [Lol p 5 1 peptide, position 151, DAYVATLTEALRVIA (Peptide ID 3324.1167)]" meas_value=50
binder="IAFFRKEPLKECGGI [Lol p 11 peptide, position 116, IAFFRKEPLKECGGI (Peptide ID 3337.0029)]" meas_value=1.44
binder="IKSDKPLKGPFNFRF [Lol p 2 peptide, position 56, IKSDKPLKGPFNFRF (Peptide ID 3324.1140)]" meas_value=38.2
